System: Pseudomonas aeruginosa
Experiment Notes: Tested in vitro for inhibitory activity against gram negative bacteria Pseudomonas aeruginosa ATCC 9027 strain
Type: functional
Reported log10 of MIC values are given for each entry in this list.
Quantity Kind: log10 of MIC (log10 of the value in µg/mL)

Molecule: CN1CCN(c2c(F)c(N)c3c(=O)c(C(=O)O)cn(C4CC4)c3c2F)CC1
Recorded Measurement: -0.60
--
Molecule: CC(C)(C)n1cc(C(=O)O)c(=O)c2cc(N)c(N3CCCC3)cc21
Recorded Measurement: 1.81
--
Molecule: N#CCN1CCN(c2cc3c(cc2N)c(=O)c(C(=O)O)cn3C2CC2)CC1
Recorded Measurement: 1.81
--
Molecule: CN1CCN(c2cc3c(c(N)c2N)c(=O)c(C(=O)O)cn3C2CC2)CC1
Recorded Measurement: 2.11
--
Molecule: Nc1cc2c(=O)c(C(=O)O)cn(C3CC3)c2cc1N1CCC(N)C1 (stereo not given)
Recorded Measurement: 1.20
--
Molecule: CN1CCN(c2nc3c(cc2N)c(=O)c(C(=O)O)cn3C2CC2)CC1
Recorded Measurement: 0.30
--
Molecule: CC(C)(C)n1cc(C(=O)O)c(=O)c2cc(N)c(N3CCN(c4ccccn4)CC3)cc21
Recorded Measurement: 2.11
--
Molecule: O=C(O)c1cn(C2CC2)c2c(F)c(N3CCSCC3)c(F)cc2c1=O
Recorded Measurement: 0.00
--
Molecule: Nc1cc2c(=O)c(C(=O)O)cn(C3CC3)c2cc1N1CCSCC1
Recorded Measurement: 0.30
--
Molecule: NCCN1CCN(c2cc3c(cc2N)c(=O)c(C(=O)O)cn3C2CC2)CC1
Recorded Measurement: 1.51
